molecular target: BRD4 BD1 (Homo sapiens, UniProt O60885, Y390A); construct: BRD4 (1-477) (Y97A) and (Y390A); made in house; host or cells: E. coli (pET15b vector); assay: TR-FRET binding assay, BRD4 BD1 (mutant protein); conditions: BRD4 (1-477) mutant, 10 nM protein, read-out: pIC50 in the BRD4 BD1 assay (converted)
Counter-ions that a name gives are not always drawn.
Measured IC50, listed per entry for reference.
test_readout: IC50

>>> readout_value("Cn1cc(-c2ccc(C(=O)O)cc2OCC2CC2)c2oc(CN3CCN(S(C)(=O)=O)CC3)cc2c1=O")
"≤ 10 nM"
>>> readout_value("CC(=O)Nc1cc(-c2cn(C)c(=O)c3cc(C(C)N4CCN(S(C)(=O)=O)CC4)oc23)ccn1 (stereo not shown) [Example 36, formic acid salt]")
"≤ 100 nM"
>>> readout_value("COc1ccc(-c2cn(C)c(=O)c3cc(CN4CCN(S(C)(=O)=O)C[C@H]4C)oc23)cc1OC")
"≤ 100 nM"
>>> readout_value("C[C@@H]1CN(S(C)(=O)=O)CCN1Cc1cc2c(=O)n(C)cc(-c3ccnc(OCCN4CCCC4=O)c3)c2o1")
"≤ 10 nM"
